// provenance: patent US20180258158A1

Biological target: T1, mouse serum albumin (MSA), full length (mouse, UniProt P07724 25-608)
T1 construct: mature; Immobilized on CM5 chip (SPR) or coated on plates (ELISA); also called mouse albumin; murine serum albumin
Test: SPR off-rate, immobilized MSA, 500 nM Adnectin, 25 C
readout kind: koff

binder: ADX_6727_F07 (Y44S/K85A) (designed binder, Full His6-tagged entry) MGVSDVPRDLEVVAATPTSLLISWDAPAVTVRYYRITYGREVQKYSDLGPLYISQEFTVPGSKSTATISGLKPGVDYTITVYAVTGSGESPASSAPISINYRTEIDKPSQHHHHHH
observed value: 0.00277 s⁻¹
//
binder: ADX_6727_G04 (Y44S/K85S) (designed binder, Full His6-tagged entry) MGVSDVPRDLEVVAATPTSLLISWDAPAVTVRYYRITYGREVQKYSDLGPLYISQEFTVPGSKSTATISGLKPGVDYTITVYAVTGSGESPASSSPISINYRTEIDKPSQHHHHHH
observed value: 0.00259 s⁻¹
//
binder: ADX_6727_G10 (Y35S/K85A) (designed binder, Full His6-tagged entry) MGVSDVPRDLEVVAATPTSLLISWDAPAVTVRYYRITYGREVQKSSDLGPLYIYQEFTVPGSKSTATISGLKPGVDYTITVYAVTGSGESPASSAPISINYRTEIDKPSQHHHHHH
observed value: 0.00138 s⁻¹

Please find the next binder below.
Could you share which koff value was measured for ADX_7016_E02 (L38T) (designed binder, Full His6-tagged entry; also called 6727_E08) MGVSDVPRDLEVVAATPTSLLISWDAPAVTVRYYRITYGREVQKYSDTGPLYIYQEFTVPGSKSTATISGLKPGVDYTITVYAVTGSGESPASSKPISINYRTEIDKPSQHHHHHH ? 0.0248 s⁻¹
